Cited source for all entries: patent US8290713

assayedSystem: α-synuclein (UniProt P37840 1-140); also: test concentration or dose not given here
protocolDescription: cell-based or functional assay
Non-standard residues stand in square brackets, D forms with d.
# % increase in Lag phase per entry
Give just the numeric value; % need not be written.

binder | measuredProperty | unitAnnotation | reading
Ac-[dH][dH][dT][dT][dV][dY]-NH2 (SMILES CC(=O)N[C@H](Cc1c[nH]cn1)C(=O)N[C@H](Cc1c[nH]cn1)C(=O)N[C@@H](C(=O)N[C@@H](C(=O)N[C@@H](C(=O)N[C@H](Cc1ccc(O)cc1)C(N)=O)C(C)C)[C@H](C)O)[C@H](C)O) [ZP-0194] | % increase in Lag phase | % | 38.8

Which % increase in Lag phase is reported for this binder? Ac-[dQ][dY][dP][dV][dL][dI]-NH2 (SMILES CC[C@@H](C)[C@@H](NC(=O)[C@@H](CC(C)C)NC(=O)[C@H](NC(=O)[C@H]1CCCN1C(=O)[C@@H](Cc1ccc(O)cc1)NC(=O)[C@@H](CCC(N)=O)NC(C)=O)C(C)C)C(N)=O) [ZP-0206]
25.9

Same question, H-[dP][dY][dS][dV][dL][dI]-NH2 (SMILES CC[C@@H](C)[C@@H](NC(=O)[C@@H](CC(C)C)NC(=O)[C@H](NC(=O)[C@@H](CO)NC(=O)[C@@H](Cc1ccc(O)cc1)NC(=O)[C@H]1CCCN1)C(C)C)C(N)=O) [ZP-0228] this time
38.2

Same question, Ac-[dH][dH][dV][dV][dV][dA]-NH2 (SMILES CC(=O)N[C@H](Cc1c[nH]cn1)C(=O)N[C@H](Cc1c[nH]cn1)C(=O)N[C@@H](C(=O)N[C@@H](C(=O)N[C@@H](C(=O)N[C@H](C)C(N)=O)C(C)C)C(C)C)C(C)C) [ZP-0159] this time
36.6

Same question, Ac-[dH][dH][dV][dI][dV][dT]-NH2 (SMILES CC[C@@H](C)[C@@H](NC(=O)[C@H](NC(=O)[C@@H](Cc1c[nH]cn1)NC(=O)[C@@H](Cc1c[nH]cn1)NC(C)=O)C(C)C)C(=O)N[C@@H](C(=O)N[C@@H](C(N)=O)[C@H](C)O)C(C)C) [ZP-0170] this time
29.4

Same question, Ac-[dH][dH][dV][dL][dV][dA]-NH2 (SMILES CC(=O)N[C@H](Cc1c[nH]cn1)C(=O)N[C@H](Cc1c[nH]cn1)C(=O)N[C@@H](C(=O)N[C@H](CC(C)C)C(=O)N[C@@H](C(=O)N[C@H](C)C(N)=O)C(C)C)C(C)C) [ZP-0160] this time
36.5
